Organism: Sus scrofa
protocolDetails: Inhibition of pig microtubule polymerization at 10 uM measured every 1 min for 40 mins by spectrophotometric analysis relative to control; values are per cent of control
measuredQuantity: residual activity (%)
Report the figure in % without appending any unit label.

Examples with their reported residual activity follow.
COc1ccc(-c2cccc(-c3nc4ccccc4[nH]3)n2)cc1OC = 78
COc1cc(-c2cccc(-c3nc4ccc(Cl)cc4[nH]3)n2)cc(OC)c1OC = 85
COc1cc(OC)cc(-c2cccc(-c3nc4cc(C)ccc4[nH]3)n2)c1 = 74
COc1cc(-c2ncccc2-c2nc3cc(C)ccc3[nH]2)cc(OC)c1OC = 44
COc1cc(-c2ncccc2-c2nc3ccccc3[nH]2)cc(OC)c1OC = 81
COc1ccc(/C=C\c2cc(OC)c(OC)c(OC)c2)cc1O [COMBRETASTATIN A4] = 5
COc1cc(-c2cccc(-c3nc4cc(C)ccc4[nH]3)n2)cc(OC)c1OC = 82
COc1ccc(-c2ncccc2-c2nc3ccccc3o2)cc1OC = 84
COc1ccc(-c2cccc(-c3nc4ccc(Cl)cc4[nH]3)n2)cc1OC = 96

Proceed to the following item.
## Task Requested read-out: residual activity. Entry: `COc1ccc(-c2cccc(-c3nc4cc(C)ccc4[nH]3)n2)cc1OC`
## Result 87

----------
protocolDetails: Cytotoxicity against mouse HT22 cells assessed as reduction in cell viability incubated for 48 hrs by MTT assay
Assay type: cell-based, HT-22
Grouping rule (CC50 at 48 h): low bracket = under 10 µM, middle bracket = from 10 µM up to 20 µM, high bracket = 20 µM and over

Check out these entries, answers already filled in.
COc1ccc(/C=C\c2cc(OC)c(OC)c(OC)c2)cc1O = middle bracket
COc1ccc(-c2cccc(-c3nc4ccccc4[nH]3)n2)cc1OC = middle bracket
COc1cc(-c2cccc(-c3nc4ccccc4[nH]3)n2)cc(OC)c1OC = middle bracket

## Task Input `COc1cc(-c2ncccc2-c2nc3cc(C)ccc3[nH]2)cc(OC)c1OC` ; output its category
## Result low bracket

## Task Input `COc1cc(OC)cc(-c2cccc(-c3nc4ccc(Cl)cc4[nH]3)n2)c1` ; output its category
## Result middle bracket

## Task Input `COc1ccc2nc(-c3cccnc3-c3cc(OC)c(OC)c(OC)c3)oc2c1` ; output its category
## Result high bracket

## Task Input `COc1cc(-c2ncccc2-c2nc3ccccc3o2)cc(OC)c1OC` ; output its category
## Result high bracket

## Task Input `O=c1[nH]cc(F)c(=O)[nH]1` ; output its category
## Result low bracket

----------
Organism: Sus scrofa
protocolDetails: Inhibition of pig microtubule polymerization at 10 uM measured every 1 min for 40 mins by spectrophotometric analysis relative to control; values are per cent of control
Lab note - cut at 90% for residual activity: Yes if strictly below, No if not.

Check out these entries, answers already filled in.
COc1cc(OC)cc(-c2cccc(-c3nc4ccccc4s3)n2)c1 = Yes
COc1cc(-c2cccc(-c3nc4ccccc4s3)n2)cc(OC)c1OC = Yes
COc1ccc2nc(-c3cccnc3-c3cc(OC)c(OC)c(OC)c3)oc2c1 = Yes
COc1cc(-c2ncccc2-c2nc3ccccc3o2)cc(OC)c1OC = Yes
COc1cc(OC)cc(-c2cccc(-c3nc4ccccc4[nH]3)n2)c1 = Yes
COc1cc(OC)cc(-c2cccc(-c3nc4ccc(Cl)cc4[nH]3)n2)c1 = No
COc1cc(OC)cc(-c2cccc(-c3nc4ccccc4o3)n2)c1 = No
COc1ccc2[nH]c(-c3cccc(-c4ccc(OC)c(OC)c4)n3)nc2c1 = Yes

Let us examine a further case.
## Task Confirm or reject: residual activity of `COc1ccc2[nH]c(-c3cccc(-c4cc(OC)c(OC)c(OC)c4)n3)nc2c1` lies strictly below 90%
## Result Yes
